Source: patent US20260151494A1

- Assayed System: T1, apical domain of cynomolgus CD71 (cynomolgus, UniProt A0A2K5X958 189-383)
- T1 construct: domain: apical domain; also called Cyno apical domain
- T1 sequence (A0A2K5X958 entry or part of it): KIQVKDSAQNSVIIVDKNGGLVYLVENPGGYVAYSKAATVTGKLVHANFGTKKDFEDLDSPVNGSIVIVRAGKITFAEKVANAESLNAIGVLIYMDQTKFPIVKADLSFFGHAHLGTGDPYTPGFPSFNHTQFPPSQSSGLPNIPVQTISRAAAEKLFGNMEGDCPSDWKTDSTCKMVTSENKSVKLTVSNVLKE
- Assay Method Text: primary ELISA, ratio of signal to HSA control
Parameter: Cyno apical domain:HSA

CD71-binding FN3 domain of SEQ ID NO: 228 (designed binder) MSLPAPKNLVVSRVTEDSARLSWTAPDAAFDSFEIGYWENAYKGEAIVLTVPGSERSYDLTGLKPGTEYVVFIGGVKGGVWSKPLSVIFTT | 242
CD71-binding FN3 domain of SEQ ID NO: 233 (designed binder) MSLPAPKNLVVSRVTEDSARLSWTAPDAAFDSFFIGYLEPQPPGEAIHLSVPGSERSYDLTGLKPGTEYWVQIGGVKGGNWSAPLSAIFTT | 359
CD71-binding FN3 domain of SEQ ID NO: 230 (designed binder) MSLPAPKNLIVSRVTEDSARLSWTAPDAAFDSLEIGYFENLYLGEAIVLTVPGSERSYDLTGLKPGTEYWVQIGGVKGGNWSAPLSAIFTT | 282
